Recorded molar heat capacity at constant pressure for the following compounds
# test.protocol: molar heat capacity at constant pressure
# measurement.parameters: 341.65 K; 101.33 kPa; Liquid
Lab book: enter the figure in J/K/mol, no units written.

Study these solved cases before continuing.
{"mol.smiles": "CCCCCCCl", "molar heat capacity at constant pressure / J/K/mol": 231.22}
{"mol.smiles": "CCCCCCCCCCBr", "molar heat capacity at constant pressure / J/K/mol": 360.7}
{"mol.smiles": "CCCCCCCCCBr", "molar heat capacity at constant pressure / J/K/mol": 328.13}
{"mol.smiles": "CCCCCBr", "molar heat capacity at constant pressure / J/K/mol": 203.58}

// molar heat capacity at constant pressure lookup, key: CCCCCCCCCl
293.56

// lookup molar heat capacity at constant pressure for CCCCCCCCl
261.55

Please look up its molar heat capacity at constant pressure: CCCCCl
170.01

* * *

# test.protocol: molar heat capacity at constant pressure
# measurement.parameters: 294.15 K; 101.33 kPa; Liquid
property.label: molar heat capacity at constant pressure (J/K/mol)
Respond with the bare value in J/K/mol.

Here's what some known entries look like.
{"molecule": "CCCCCl [1-chlorobutane]", "molar heat capacity at constant pressure / J/K/mol": 158.27}
{"molecule": "CCBr [bromoethane]", "molar heat capacity at constant pressure / J/K/mol": 106.75}
{"molecule": "CCCCCCCBr [1-bromoheptane]", "molar heat capacity at constant pressure / J/K/mol": 248.12}
{"molecule": "CCCCl [1-chloropropane]", "molar heat capacity at constant pressure / J/K/mol": 130.47}
{"molecule": "CCCCBr [1-bromobutane]", "molar heat capacity at constant pressure / J/K/mol": 161.52}
{"molecule": "CCCCCCCCCCBr [1-bromodecane]", "molar heat capacity at constant pressure / J/K/mol": 336.9}

Need molar heat capacity at constant pressure, item CCCCCCCl [1-chlorohexane]
215.4

Query: molar heat capacity at constant pressure; subject: CCCCCCCCl [1-chloroheptane]
244.29

Suppose we examine the molecule CCCBr [1-bromopropane] ; what molar heat capacity at constant pressure value has been reported?
132.78

# lookup: molar heat capacity at constant pressure of CCCCCBr [1-bromopentane]
190.33

Can you share its molar heat capacity at constant pressure? I mean this molecule: CCCCCCCCCBr [1-bromononane]
306.69

Tell me the measured molar heat capacity at constant pressure of CCCCCCCCCl [1-chlorooctane] , please.
273.66

Dear colleague, I am looking for the recorded molar heat capacity at constant pressure of the following molecule: CCCCCCl [1-chloropentane]
187.16

Consider the molecule shown here: CCCCCCCCCCCl [1-chlorodecane] What is its recorded molar heat capacity at constant pressure?
333.14

Returns the measured molar heat capacity at constant pressure for the input molecule. Input: CCCCCCBr [1-bromohexane]
218.54

* * *

# test.protocol: molar heat capacity at constant pressure
# measurement.parameters: 286.65 K; 101.33 kPa; Liquid
property.label: molar heat capacity at constant pressure (J/K/mol)
Report the figure in J/K/mol without appending any unit label.

{"mol.smiles": "CCCCCl", "molar heat capacity at constant pressure (J/K/mol)": 156.75}
{"mol.smiles": "CCCCCCCBr", "molar heat capacity at constant pressure (J/K/mol)": 245.56}
{"mol.smiles": "CCCCCCCCCCCl", "molar heat capacity at constant pressure (J/K/mol)": 329.82}
{"mol.smiles": "CCCCCCBr", "molar heat capacity at constant pressure (J/K/mol)": 216.29}
{"mol.smiles": "CCCCl", "molar heat capacity at constant pressure (J/K/mol)": 128.99}

What value of molar heat capacity at constant pressure has been recorded for this entry: CCCCCCCCCBr
303.54

Would you kindly share the measured molar heat capacity at constant pressure for CCCCCCCCCl ?
270.79

Which molar heat capacity at constant pressure is listed for CCCCCCl ?
185.29

Reported molar heat capacity at constant pressure for CCCCCBr : what is it?
188.46

Recorded molar heat capacity at constant pressure for CCCCCCCCCCBr , please?
333.65

Give its molar heat capacity at constant pressure value. Item: CCCBr
131.64

* * *

# test.protocol: molar heat capacity at constant pressure
# measurement.parameters: 301.65 K; 101.33 kPa; Liquid
Cut-off 200 J/K/mol on molar heat capacity at constant pressure, inclusive. At or above means condition met; below means condition not met.

# example entries with known answers
{"molecule": "CCCCCCl [1-chloropentane]", "label": "condition not met"}
{"molecule": "CCCCCCCBr [1-bromoheptane]", "label": "condition met"}
{"molecule": "CCCCCCCCCl [1-chlorooctane]", "label": "condition met"}
{"molecule": "CCCBr [1-bromopropane]", "label": "condition not met"}

Say whether CCCCCCCCCBr [1-bromononane] shows molar heat capacity at constant pressure of 200 J/K/mol or more.
condition met

Check this molecule for molar heat capacity at constant pressure at or above 200 J/K/mol: CCCCCCCCl [1-chloroheptane]
condition met

# bool: molar heat capacity at constant pressure of CCCCBr [1-bromobutane] >= 200 J/K/mol
condition not met

// inclusive: molar heat capacity at constant pressure at least 200 J/K/mol? input: CCCCCl [1-chlorobutane]
condition not met

State whether the measured molar heat capacity at constant pressure reaches 200 J/K/mol, counting equality as reaching it, for CCCCCBr [1-bromopentane]
condition not met

Can CCCCCCCl [1-chlorohexane] be said to have molar heat capacity at constant pressure at or above 200 J/K/mol?
condition met

Please indicate if the recorded molar heat capacity at constant pressure for CCCCl [1-chloropropane] meets or exceeds 200 J/K/mol.
condition not met

Kindly determine if molar heat capacity at constant pressure recorded for CCCCCCBr [1-bromohexane] is above or exactly 200 J/K/mol.
condition met

Is the recorded value of molar heat capacity at constant pressure equal to or greater than 200 J/K/mol for this molecule? CCCCCCCCCCBr [1-bromodecane]
condition met

Determine whether measured molar heat capacity at constant pressure meets or exceeds 200 J/K/mol for CCCCCCCCCCCl [1-chlorodecane]
condition met

* * *

# test.protocol: molar heat capacity at constant pressure
# measurement.parameters: 319.15 K; 101.33 kPa; Liquid
± gives the expanded uncertainty stated by the source.
property.label: molar heat capacity at constant pressure
Please provide the amount together with its unit, number first.

{"mol.smiles": "CCCCCl", "property.label": "molar heat capacity at constant pressure", "endpoint.result": "164.11 ± 0.82 J/K/mol"}
{"mol.smiles": "CCCCCCCCCBr", "property.label": "molar heat capacity at constant pressure", "endpoint.result": "317.44 ± 1.6 J/K/mol"}
{"mol.smiles": "CCCCBr", "property.label": "molar heat capacity at constant pressure", "endpoint.result": "167.09 ± 0.84 J/K/mol"}
{"mol.smiles": "CCCCCCCCl", "property.label": "molar heat capacity at constant pressure", "endpoint.result": "253.36 ± 1.3 J/K/mol"}
{"mol.smiles": "CCCCCCCCCCBr", "property.label": "molar heat capacity at constant pressure", "endpoint.result": "348.84 ± 1.7 J/K/mol"}

I have this compound here, CCCBr , and I need its recorded molar heat capacity at constant pressure.
137.16 ± 0.69 J/K/mol

Dear colleague, I am looking for the recorded molar heat capacity at constant pressure of the following compound: CCCCCCCCCCCl
345.04 ± 1.7 J/K/mol

Record request: molar heat capacity at constant pressure value, item CCCCCCl
194.09 ± 0.97 J/K/mol

Any idea what molar heat capacity at constant pressure was measured for CCCCCCCBr ?
256.84 ± 1.3 J/K/mol

* * *

Listed below: molar heat capacity at constant pressure values for each entry.
# test.protocol: molar heat capacity at constant pressure
# measurement.parameters: 329.15 K; 101.33 kPa; Liquid
Respond numerically; units are J/K/mol and should not be typed.

{"mol.smiles": "CCCCCCBr", "uom": "J/K/mol", "endpoint.result": 229.55}

I am curious: what molar heat capacity at constant pressure value has been reported for CCCCCCCCl ?
257.57

Name the recorded molar heat capacity at constant pressure for CCCCCBr .
199.8

What value of measured molar heat capacity at constant pressure is listed for CCCCCl ?
166.72

Any idea what molar heat capacity at constant pressure was measured for CCCCCCCCCl ?
288.43

Would you kindly share the measured molar heat capacity at constant pressure for CCCCCCl ?
196.99

Consider the compound shown here: CCCCCCCCCCCl What is its recorded molar heat capacity at constant pressure?
350.01

* * *

# test.protocol: molar heat capacity at constant pressure
# measurement.parameters: 291.65 K; 101.33 kPa; Liquid
property.label: molar heat capacity at constant pressure (J/K/mol)
Return type: number; implicit unit J/K/mol.

{"mol.smiles": "CCCCCl", "uom": "J/K/mol", "molar heat capacity at constant pressure": 157.7}
{"mol.smiles": "CCBr", "uom": "J/K/mol", "molar heat capacity at constant pressure": 106.42}
{"mol.smiles": "CCCCCCBr", "uom": "J/K/mol", "molar heat capacity at constant pressure": 217.78}
{"mol.smiles": "CCCCCBr", "uom": "J/K/mol", "molar heat capacity at constant pressure": 189.85}
{"mol.smiles": "CCCCCCCCl", "uom": "J/K/mol", "molar heat capacity at constant pressure": 243.4}
{"mol.smiles": "CCCCCCCl", "uom": "J/K/mol", "molar heat capacity at constant pressure": 214.63}
{"mol.smiles": "CCCCCCCCCCCl", "uom": "J/K/mol", "molar heat capacity at constant pressure": 332.01}
{"mol.smiles": "CCCCCCCCCCBr", "uom": "J/K/mol", "molar heat capacity at constant pressure": 336.08}
{"mol.smiles": "CCCCCCl", "uom": "J/K/mol", "molar heat capacity at constant pressure": 186.52}
{"mol.smiles": "CCCCCCCCCl", "uom": "J/K/mol", "molar heat capacity at constant pressure": 272.66}

For the molecule CCCCl , what molar heat capacity at constant pressure is on record?
130.1

Could you tell me which molar heat capacity at constant pressure is on file for CCCBr ?
132.46

Data request, read-out molar heat capacity at constant pressure, for CCCCCCCBr
247.28

Looking for the measured molar heat capacity at constant pressure of CCCCBr , can you help?
161.01

May I ask what molar heat capacity at constant pressure has been recorded for CCCCCCCCCBr ?
305.57
